Target: HDAC2 (Homo sapiens, UniProt Q92769)
Sequence (Q92769 whole entry, species assumed): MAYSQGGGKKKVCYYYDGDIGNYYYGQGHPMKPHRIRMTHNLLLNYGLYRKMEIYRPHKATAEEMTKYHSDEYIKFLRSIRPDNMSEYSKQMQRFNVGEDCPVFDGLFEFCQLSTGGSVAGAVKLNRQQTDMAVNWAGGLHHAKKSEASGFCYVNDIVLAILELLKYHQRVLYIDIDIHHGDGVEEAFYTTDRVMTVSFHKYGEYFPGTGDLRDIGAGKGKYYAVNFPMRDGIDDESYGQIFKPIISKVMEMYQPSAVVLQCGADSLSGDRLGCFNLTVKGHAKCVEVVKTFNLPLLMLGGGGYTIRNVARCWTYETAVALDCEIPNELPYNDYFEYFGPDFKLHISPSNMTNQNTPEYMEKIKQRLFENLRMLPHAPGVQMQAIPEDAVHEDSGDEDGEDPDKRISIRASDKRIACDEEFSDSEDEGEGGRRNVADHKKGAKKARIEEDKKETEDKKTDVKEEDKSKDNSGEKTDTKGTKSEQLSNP
Property: pIC50; scope: individual molecules
Recall that pIC50 is obtained by taking minus log10 of the concentration measured in molar.

Below are worked cases with known answers.
INSERT INTO results (molecule, tgt, quantity_measured, value) VALUES
  ('N=c1ccc2c(-c3ccccc3C(=O)NCCCCCC(=O)Nc3ccccc3N)c3ccc(N)cc3oc-2c1 [LL38, 2,2,2-trifluoroacetate]', 'HDAC2 (Homo sapiens, UniProt Q92769)', 'pIC50', 6.31),
  ('CCCNNC(=O)CCCCCCNC(=O)c1ccccc1-c1c2ccc(=N)cc-2oc2cc(N)ccc12 [LL142, 2,2,2-trifluoroacetate]', 'HDAC2 (Homo sapiens, UniProt Q92769)', 'pIC50', 6.34);

Req: Kindly state the measured pIC50 obtained for N=c1ccc2c(-c3ccccc3C(=O)NCc3ccc(C(=O)Nc4ccccc4N)cc3)c3ccc(N)cc3oc-2c1 [LL66, 2,2,2-trifluoroacetate] with HDAC2 (Homo sapiens, UniProt Q92769).
Resp: 5.46

Req: Kindly state the measured pIC50 obtained for CCCNNC(=O)c1ccc(NC(=O)CNC(=O)c2ccccc2-c2c3ccc(=N)cc-3oc3cc(N)ccc23)cc1 [LL162, 2,2,2-trifluoroacetate] with HDAC2 (Homo sapiens, UniProt Q92769).
Resp: 6.33

Req: Kindly state the measured pIC50 obtained for N=c1ccc2c(-c3ccccc3C(=O)NCCCCCCCC(=O)Nc3ccccc3N)c3ccc(N)cc3oc-2c1 [LL130, 2,2,2-trifluoroacetate] with HDAC2 (Homo sapiens, UniProt Q92769).
Resp: 5.29

Req: Kindly state the measured pIC50 obtained for CCCNNC(=O)c1ccc(CNC(=O)c2ccccc2-c2c3ccc(=N)cc-3oc3cc(N)ccc23)cc1 [LL65, 2,2,2-trifluoroacetate] with HDAC2 (Homo sapiens, UniProt Q92769).
Resp: 6.07

Req: Kindly state the measured pIC50 obtained for N=c1ccc2c(-c3ccccc3C(=O)NCCCCCCC(=O)Nc3ccccc3N)c3ccc(N)cc3oc-2c1 [LL45, 2,2,2-trifluoroacetate] with HDAC2 (Homo sapiens, UniProt Q92769).
Resp: 5.61

Req: Kindly state the measured pIC50 obtained for CCCNNC(=O)c1ccc(CNC(=O)CNC(=O)c2ccccc2-c2c3ccc(=N)cc-3oc3cc(N)ccc23)cc1 [LL115, 2,2,2-trifluoroacetate] with HDAC2 (Homo sapiens, UniProt Q92769).
Resp: 6.68

Data provenance: patent US10703737B2
